Target: Cannabinoid receptor 1 (Homo sapiens)
Sequence (P21554 whole entry): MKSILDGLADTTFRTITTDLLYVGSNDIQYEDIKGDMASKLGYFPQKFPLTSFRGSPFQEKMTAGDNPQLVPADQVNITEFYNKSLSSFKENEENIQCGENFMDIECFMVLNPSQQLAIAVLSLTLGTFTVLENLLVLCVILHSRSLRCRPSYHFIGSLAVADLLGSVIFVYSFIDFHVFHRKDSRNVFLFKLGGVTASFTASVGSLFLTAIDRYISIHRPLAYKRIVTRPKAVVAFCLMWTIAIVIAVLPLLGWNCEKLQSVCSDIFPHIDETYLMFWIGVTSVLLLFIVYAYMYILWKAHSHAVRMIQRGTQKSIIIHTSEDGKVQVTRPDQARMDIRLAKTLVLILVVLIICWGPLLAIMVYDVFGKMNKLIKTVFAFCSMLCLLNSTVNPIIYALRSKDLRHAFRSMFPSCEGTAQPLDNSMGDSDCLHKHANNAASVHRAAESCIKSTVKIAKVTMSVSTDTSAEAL
Assay endpoint: IC50

>>> df
                               query_smiles  measurement
0  CC1(C)OC(=O)N([C@H]2CC[C@H](c3cnc(N)c(-c4ncccn4)c3)CC2)[C@H]1c1ccccc1    > 48.5 µM

---

Target: Somatostatin receptor type 4 (Homo sapiens, UniProt P31391)
Sequence (P31391 whole entry): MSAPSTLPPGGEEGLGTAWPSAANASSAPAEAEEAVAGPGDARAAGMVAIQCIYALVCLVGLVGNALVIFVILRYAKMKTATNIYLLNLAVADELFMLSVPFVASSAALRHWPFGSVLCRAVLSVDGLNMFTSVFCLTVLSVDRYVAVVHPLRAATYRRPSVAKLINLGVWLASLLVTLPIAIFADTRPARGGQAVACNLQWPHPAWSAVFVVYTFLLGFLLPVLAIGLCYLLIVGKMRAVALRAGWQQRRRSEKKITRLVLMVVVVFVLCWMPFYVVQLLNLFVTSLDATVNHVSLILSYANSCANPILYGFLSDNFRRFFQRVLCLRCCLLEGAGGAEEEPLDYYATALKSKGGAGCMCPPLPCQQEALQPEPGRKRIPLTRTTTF
Assay endpoint: IC50

>>> df
                               query_smiles  assay_endpoint  measurement
0  CC1(C)OC(=O)N([C@H]2CC[C@H](c3cnc(N)c(-c4ncccn4)c3)CC2)[C@H]1c1ccccc1            IC50    > 48.5 µM

---

Assay: Cmax in Sprague-Dawley rat at 2 mg/kg, po
Type: ADME, organism-based
Design: dose 2 mg/kg, route oral
Conditions: in vivo
Catalogue of Cmax readings, one per entry.
Assay endpoint: Cmax (nM)

>>> print(df.to_string())
                               query_smiles  assay_endpoint  unit_annotation  measurement
0  CC1(C)OC(=O)N([C@H]2CC[C@H](c3cnc(N)c(-c4ncccn4)c3)CC2)[C@H]1c1ccccc1            Cmax               nM          450
1  CC1(C)OC(=O)N(c2ccc(-c3cnc(N)c(-c4ncccn4)c3)cc2)[C@H]1c1ccccc1            Cmax               nM          370

Origin of measurements: ChEMBL document CHEMBL3098003
